Tested on: P. falciparum stage V gametocytes
Parameters: BacTiter-Glo ATP luminescence viability of purified stage V gametocytes in 384-well plates, per cent inhibition versus DMSO
Details: 48 h, 5 µM; inhibitor
Screen size: about 13,000 compounds; about 3,200 (25%) showed an effect of 50% or more. The list shows a part of the results.
Catalogue of % Inhibition readings, one per entry.
quantity name: % Inhibition (%)

- compound: "COc1c(C2CCN(CCN3CCC(NC(=O)c4ccc(-c5ccc(C(F)(F)F)cc5)cc4)CC3)CC2)ccc2c1CCCC2"
  measured result: 16.95
- compound: "N#Cc1ccc(-c2ccc(C(=O)NCCCCN3CCC(c4ccc5c(c4OCC(N)=O)CCCC5)CC3)nc2)cc1"
  measured result: 23.96
- compound: "COc1ccc2ncc(F)c(CCN3CCC(NCc4cc(Br)c5c(c4)OCCO5)CC3)c2n1"
  measured result: 30.05
- compound: "NC(=O)COc1c(C2CCN(CCN3CCC(CNC(=O)c4ccc(-c5ccc(C(F)(F)F)cc5)cc4)CC3)CC2)ccc2c1CCCC2"
  measured result: 93.17
- compound: "COc1ccc2ncc(F)c(CCN3CC(O)C(CNCc4ccccc4)C3)c2n1 (stereo not shown)"
  measured result: 50.66
- compound: "N#Cc1ccc(-c2nc(CO)c(C(=O)NCCCCN3CCC(c4ccc5c(c4OCC(N)=O)CCCC5)CC3)s2)cc1"
  measured result: -1.012
- compound: "COc1ccc2ncc(F)c(CCN3CCC4(CC3)COC(c3cc5c(cn3)OCCO5)=N4)c2n1"
  measured result: 93.18

###

System: P. falciparum stage V gametocytes
Design: BacTiter-Glo ATP luminescence viability of purified stage V gametocytes in 384-well plates, per cent inhibition versus DMSO
Settings: 48 h, 5 µM; inhibitor
The whole screen tested about 13,000 compounds, of which about 3,200 (25%) showed an effect of 50% or more. Some of the results follow.
Label 1 (yes) for high-side % Inhibition (at or above 10%) and 0 (no) for low-side % Inhibition (below it).

- molecule: "COC(=O)C(=O)c1c(-c2ccccc2)c(-c2ccc(OC)c(OC)c2)c2c3cc(OC)c(OC)cc3ccn12"
  label class: "1 (yes)"
- molecule: "Cc1cc(C(F)(F)F)n2nc(C3CCN(Cc4cc(C)c(O)c(C)c4)C3)cc2n1 (centres unmarked)"
  label class: "1 (yes)"
- molecule: "Cc1ccccc1N1CCN(c2ccc(C(=O)Nc3ccccc3)cn2)CC1"
  label class: "0 (no)"
- molecule: "COc1ccc(-c2cc(C(=O)N3CCc4ccccc43)c3ccccc3n2)cc1OC"
  label class: "0 (no)"
- molecule: "Cc1cc(C(F)(F)F)n2nc(C(=O)N(Cc3cncn3Cc3cccc(F)c3)CC3CC3)cc2n1"
  label class: "0 (no)"
- molecule: "CCN(CC)CCCSc1ccc(-c2ccc(SCCCN(CC)CC)cc2)cc1"
  label class: "1 (yes)"
- molecule: "CN(C)C1CCN(Cc2ccc(N3CCN(Cc4cccc5[nH]ccc45)CC3)nc2)CC1"
  label class: "1 (yes)"

###

Catalogue of % Inhibition readings, one per entry.
System: P. falciparum stage V gametocytes
Parameters: BacTiter-Glo ATP luminescence viability of purified stage V gametocytes in 384-well plates, per cent inhibition versus DMSO
Details: 48 h, 5 µM; inhibitor
The whole screen tested about 13,000 compounds, of which about 3,200 (25%) showed an effect of 50% or more. Some of the results follow.
quantity name: % Inhibition (%)

- molecule: "OC1CCN(c2cc(-c3ccccn3)nc(-c3ccccn3)n2)CC1 [TCMDC-123786]"
  experimental system: "P. falciparum stage V gametocytes"
  units: "%"
  measured result: 41.56
- molecule: "CCN(CC)/C(=N/C(=N)Nc1ccc(Cl)c(Cl)c1)NCCCCCCN/C(=N\\C(=N)Nc1ccc(Cl)c(Cl)c1)N(CC)CC [TCMDC-131808]"
  experimental system: "P. falciparum stage V gametocytes"
  units: "%"
  measured result: 116.2
- molecule: "COc1ccccc1N1CCN(CCCCNC(=O)c2ccc(NC(=O)c3cc4ccccc4o3)cc2)CC1 [TCMDC-138115]"
  experimental system: "P. falciparum stage V gametocytes"
  units: "%"
  measured result: -10.75
- molecule: "O=C(/C=C/c1ccc(Cl)c(Cl)c1)NCCCCCCN1CCCN(C(=O)Nc2cc(F)cc(F)c2)CC1 [TCMDC-135941]"
  experimental system: "P. falciparum stage V gametocytes"
  units: "%"
  measured result: 5.109
- molecule: "CCCCN1CCN(CC(O)CNC(=O)Nc2ccc(Cl)cc2)CC1 (stereo not shown) [TCMDC-134646]"
  experimental system: "P. falciparum stage V gametocytes"
  units: "%"
  measured result: 4.082
- molecule: "O=S1(=O)NC2(CCN(CCc3ccc(Cl)cc3)CC2)Nc2cc(F)cc(F)c21 [TCMDC-124990]"
  experimental system: "P. falciparum stage V gametocytes"
  units: "%"
  measured result: -19.76
- molecule: "C=CCNc1cc(-c2ccccn2)nc(-c2ccccn2)n1 [TCMDC-123787]"
  experimental system: "P. falciparum stage V gametocytes"
  units: "%"
  measured result: 23.88
- molecule: "CC(C)c1nc(N2CCN(C(=S)NCc3ccccc3)CC2)c(C#N)c2c1COC(C)(C)C2 [TCMDC-124093]"
  experimental system: "P. falciparum stage V gametocytes"
  units: "%"
  measured result: 85.74
- molecule: "CCN(CC)C(=NCCCCCCN=C(NC(=N)c1ccc(Cl)cc1)N(CC)CC)NC(=N)c1ccc(Cl)cc1 [TCMDC-131806]"
  experimental system: "P. falciparum stage V gametocytes"
  units: "%"
  measured result: 117.9
- molecule: "CC(C)(C)Nc1cc(C2CC2)nc(-c2ccccn2)n1 [TCMDC-124453]"
  experimental system: "P. falciparum stage V gametocytes"
  units: "%"
  measured result: 105.8
- molecule: "O=C(NCCSCc1c(F)cccc1Cl)c1cnc2c(c1)nc(-c1cnc(-c3ccccc3)[nH]1)n2CCc1cnc[nH]1 [TCMDC-139691]"
  experimental system: "P. falciparum stage V gametocytes"
  units: "%"
  measured result: -6.07
- molecule: "CC(=O)Nc1sc(C)c(C)c1CN1CCc2ccccc2C1 [TCMDC-124498]"
  experimental system: "P. falciparum stage V gametocytes"
  units: "%"
  measured result: -41.39
- molecule: "CC1CCc2sc(-c3nnc(SC(C)C(=O)N4CCCC4)o3)cc2C1 (stereo not shown) [TCMDC-124867]"
  experimental system: "P. falciparum stage V gametocytes"
  units: "%"
  measured result: 8.673
- molecule: "Cc1c(C(=O)N2CCCC(C(F)(F)F)C2)sc2cccc(F)c12 (stereo not shown) [TCMDC-124598]"
  experimental system: "P. falciparum stage V gametocytes"
  units: "%"
  measured result: 6.461
- molecule: "Oc1ccc(CCNc2nc(NCc3ccccc3-c3cccc(Cl)c3)nc(N3CCNCC3)n2)cc1 [TCMDC-133784]"
  experimental system: "P. falciparum stage V gametocytes"
  units: "%"
  measured result: -2.358
- molecule: "Cc1cc(NC2CCCC2)nc(Nc2ccccc2)n1 [TCMDC-133459]"
  experimental system: "P. falciparum stage V gametocytes"
  units: "%"
  measured result: -35.61
- molecule: "COc1cc(NC(=O)c2c(-c3c(Cl)cccc3Cl)noc2C)c(OC)cc1Cl [TCMDC-125477]"
  experimental system: "P. falciparum stage V gametocytes"
  units: "%"
  measured result: -41.77
- molecule: "CC(Nc1cc(-c2ccccn2)nc(-c2ccccn2)n1)c1ccccc1 (stereo not shown) [TCMDC-125420]"
  experimental system: "P. falciparum stage V gametocytes"
  units: "%"
  measured result: 24.2
- molecule: "Cc1cccc(C)c1CNc1ccnc2cc(Br)ccc12 [TCMDC-132168]"
  experimental system: "P. falciparum stage V gametocytes"
  units: "%"
  measured result: -25.57
- molecule: "CC(C)(C)Oc1ccc(CC2NC3(C(=O)N(Cc4ccc(C(C)(C)C)cc4)c4ccccc43)C3C(=O)N(c4ccc(Br)cc4)C(=O)C23)cc1 (stereo not shown) [TCMDC-139774]"
  experimental system: "P. falciparum stage V gametocytes"
  units: "%"
  measured result: 1.203
- molecule: "O=c1cc(NCCCNCc2cc(Cl)c(Cl)cc2Cl)[nH]c2ccccc12 [TCMDC-139631]"
  experimental system: "P. falciparum stage V gametocytes"
  units: "%"
  measured result: -58.3
- molecule: "CC(C)Nc1nc(NC2CCCCC2)nc(N2CCCCCCC2)n1 [TCMDC-139688]"
  experimental system: "P. falciparum stage V gametocytes"
  units: "%"
  measured result: -95.56
- molecule: "c1ccc(-c2nc(NC3CCCCC3)cc(C3CC3)n2)nc1 [TCMDC-125825]"
  experimental system: "P. falciparum stage V gametocytes"
  units: "%"
  measured result: 105.2
- molecule: "O=[N+]([O-])c1ccc(NC(=NCCOc2ccccc2)Nc2ccccc2Br)c(O)c1 [TCMDC-139982]"
  experimental system: "P. falciparum stage V gametocytes"
  units: "%"
  measured result: 18.66
- molecule: "CS(=O)(=O)N1CC2(CCN(CCC(NC(=O)/C=C/c3ccccc3)c3ccc(Cl)c(Cl)c3)CC2)c2ccccc21 (stereo not shown) [TCMDC-141763]"
  experimental system: "P. falciparum stage V gametocytes"
  units: "%"
  measured result: 8.889
- molecule: "c1ccc(-c2nnc(-c3ccccn3)nc2NC2CCCCC2)cc1 [TCMDC-123764]"
  experimental system: "P. falciparum stage V gametocytes"
  units: "%"
  measured result: 29.34
- molecule: "CCN1CCN(CC(O)CNC(=O)Nc2ccc(Cl)cc2)CC1 (stereo not shown) [TCMDC-134634]"
  experimental system: "P. falciparum stage V gametocytes"
  units: "%"
  measured result: 26.07
- molecule: "COc1ccc(CCN(C)CCCCNC(=O)c2ccc(NC(=O)c3ccc(Cl)cc3)cc2)c(OC)c1 [TCMDC-138506]"
  experimental system: "P. falciparum stage V gametocytes"
  units: "%"
  measured result: 49.32
- molecule: "CCOc1cc2ncnc(Nc3ccc(OCc4c(Cl)cccc4Cl)c(OC)c3)c2cc1OCC [TCMDC-131927]"
  experimental system: "P. falciparum stage V gametocytes"
  units: "%"
  measured result: -5.801
- molecule: "O=c1cc(NCCCNC2CCc3c(Cl)cc(Cl)cc32)[nH]c2ccccc12 (stereo not shown) [TCMDC-139485]"
  experimental system: "P. falciparum stage V gametocytes"
  units: "%"
  measured result: 17.36
- molecule: "O=C(Nc1cccc(Cl)c1)c1cnc(N2CCN(c3ccncc3)CC2)c(Cl)c1 [TCMDC-134600]"
  experimental system: "P. falciparum stage V gametocytes"
  units: "%"
  measured result: 12.94
- molecule: "CCCCCCCN(CCCCCCC)CCCC(=O)Nc1ccnc2ccc(OC)cc12.O=C(O)C(=O)O [TCMDC-139843]"
  experimental system: "P. falciparum stage V gametocytes"
  units: "%"
  measured result: -16.87
- molecule: "CC(=O)Nc1ccc(OCCCCCOc2ccc(NC(C)=O)cc2Cl)c(Cl)c1 [TCMDC-137222]"
  experimental system: "P. falciparum stage V gametocytes"
  units: "%"
  measured result: -37.52
- molecule: "Cc1nc(NCCc2cnc[nH]2)cc(NCc2ccccc2)n1 [TCMDC-135164]"
  experimental system: "P. falciparum stage V gametocytes"
  units: "%"
  measured result: -1.635
